molecular target: UniProt:P34972; experiment: cell-based; format: cell-based
Decision: Emax ± SEM β-AR recruitment hCB2R beneath 10 gives t; Emax ± SEM β-AR recruitment hCB2R meeting or exceeding 10 gives f.

COc1ccc(C(=O)c2c(C)n(CCN3CCOCC3)c3cc(I)ccc23)cc1 [AM630]
t

// query Consider CN1CCCC[C@@H]1Cn1cc(C(=O)c2cc([N+](=O)[O-])ccc2I)c2ccccc21 [(R)-AM1241] . Does its Emax ± SEM β-AR recruitment hCB2R lie strictly below 10?
// result f

// query Consider CN1CCCC[C@H]1Cn1cc(C(=O)c2cc([N+](=O)[O-])ccc2I)c2ccccc21 [(S)-AM1241] . Does its Emax ± SEM β-AR recruitment hCB2R lie strictly below 10?
// result f

// query Check if Emax ± SEM β-AR recruitment hCB2R falls below 10 for Cc1c(C(=O)NN2CCCCC2)nn(-c2ccc(Cl)cc2Cl)c1-c1ccc(I)cc1 [AM251] .
// result t

// query Below 10 on Emax ± SEM β-AR recruitment hCB2R? Entry CCCC(C)(C)c1ccc2c(c1)OC(C)(C)[C@@H]1CC=C(C)C[C@@H]21 [JWH133]
// result f

// query Is the reported Emax ± SEM β-AR recruitment hCB2R for CN1CCCCC1Cn1cc(C(=O)c2cc([N+](=O)[O-])ccc2I)c2ccccc21 (racemic) [(rac)-AM1241] strictly below 10?
// result f

* * *

assay: logD distribution coefficient
measurement.label: logD
# answer = number (no unit)

// query Need logD of CCCCCCC(C)(C)c1cc(OC)c([C@@H]2C=C(CO)[C@@H]3C[C@H]2C3(C)C)c(OC)c1 [HU308] , thanks.
// result 4.29

* * *

biological target: hCB2R (Homo sapiens); assay: cell-based; type: cell-based; parameters: expressed in transfected cells; host or cells: Flp-In-293 (Invitrogen #R750-07), pcDNA5/FRT; conditions: read-out: Emax ± SEM pERK hCB2R
Sequence (P34972 whole entry): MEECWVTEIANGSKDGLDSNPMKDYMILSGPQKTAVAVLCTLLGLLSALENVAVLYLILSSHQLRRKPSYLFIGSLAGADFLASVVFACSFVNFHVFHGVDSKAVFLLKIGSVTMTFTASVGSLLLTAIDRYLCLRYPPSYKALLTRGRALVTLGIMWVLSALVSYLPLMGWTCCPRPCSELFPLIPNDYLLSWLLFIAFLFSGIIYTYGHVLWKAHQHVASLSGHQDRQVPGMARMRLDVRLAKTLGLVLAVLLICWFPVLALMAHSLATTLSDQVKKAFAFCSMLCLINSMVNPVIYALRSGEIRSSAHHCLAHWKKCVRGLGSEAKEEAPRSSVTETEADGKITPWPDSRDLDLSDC
measurement.label: Emax (%)
Field format: number, assumed %, no unit text.

CCCCCCC(C)(C)c1cc(OC)c([C@@H]2C=C(CO)[C@@H]3C[C@H]2C3(C)C)c(OC)c1
93
CCCCC/C=C\C/C=C\C/C=C\C/C=C\CCCC(=O)OC(CO)CO
99

// query Param item = CCCCC/C=C\C/C=C\C/C=C\C/C=C\CCCC(=O)NCCO [Anandamide, N-arachidonoylethanolamine] ; retrieve measured Emax.
// result 62

// query Reported Emax, molecule `CCCCCCC(C)(C)c1cc(O)c2c(c1)OC(C)(C)[C@@H]1CC=C(CO)C[C@@H]21` : ____
// result 105

* * *

biological target: hCB1R (Homo sapiens, UniProt P21554); construct: host or cells: CHO; test: biochemical; type: biochemical
Sequence (P21554 whole entry): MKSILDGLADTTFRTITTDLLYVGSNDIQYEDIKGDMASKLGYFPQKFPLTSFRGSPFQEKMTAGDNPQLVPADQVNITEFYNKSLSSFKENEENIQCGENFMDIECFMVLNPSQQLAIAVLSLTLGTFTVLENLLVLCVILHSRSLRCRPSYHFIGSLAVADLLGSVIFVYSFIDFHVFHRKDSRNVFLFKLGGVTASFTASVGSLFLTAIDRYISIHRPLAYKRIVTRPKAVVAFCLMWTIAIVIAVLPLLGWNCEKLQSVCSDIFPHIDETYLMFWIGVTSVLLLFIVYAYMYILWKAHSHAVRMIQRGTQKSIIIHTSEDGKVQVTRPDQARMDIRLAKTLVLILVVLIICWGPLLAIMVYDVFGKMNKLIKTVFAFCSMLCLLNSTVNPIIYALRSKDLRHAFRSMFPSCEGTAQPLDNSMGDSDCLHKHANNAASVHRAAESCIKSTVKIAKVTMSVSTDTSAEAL
measurement.label: EC50

// query Fill blank: measured EC50 of the compound CCCCCCC(C)(C)c1cc(OC)c([C@@H]2C=C(CO)[C@@H]3C[C@H]2C3(C)C)c(OC)c1 [HU308] is ____.
// result > 10 µM

* * *

target: mCB2R (Mus musculus, UniProt P47936); test: Operational analysis of biased signalling
Sequence (P47936 whole entry): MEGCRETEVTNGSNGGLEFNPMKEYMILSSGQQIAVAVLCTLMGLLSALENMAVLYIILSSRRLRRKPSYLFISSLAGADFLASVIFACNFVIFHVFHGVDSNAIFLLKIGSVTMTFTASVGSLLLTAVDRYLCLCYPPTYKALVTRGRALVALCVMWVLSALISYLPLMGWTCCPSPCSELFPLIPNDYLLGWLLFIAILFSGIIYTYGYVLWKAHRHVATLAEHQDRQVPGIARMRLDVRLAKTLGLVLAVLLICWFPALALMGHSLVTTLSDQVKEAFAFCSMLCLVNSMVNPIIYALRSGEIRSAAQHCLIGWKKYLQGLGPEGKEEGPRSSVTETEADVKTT
measurement.label: β-AR-cAMP bias factor (BF)
In your answer, state the number alone without any accompanying words.

// below: answered molecules
CCCCCCC(C)(C)c1ccc([C@@H]2C[C@H](O)CC[C@H]2CCCO)c(O)c1 [CP55940]
1
CCCCCCC(C)(C)c1cc(OC)c([C@@H]2C=C(CO)[C@@H]3C[C@H]2C3(C)C)c(OC)c1 [HU308]
4.9
CCCC(C)(C)c1ccc2c(c1)OC(C)(C)[C@@H]1CC=C(C)C[C@@H]21 [JWH133]
10.9

// next item, β-AR-cAMP bias factor (BF) requested
// query Please look up its β-AR-cAMP bias factor (BF): CCCCCCC(C)(C)c1cc(OC)c(C2=C[C@H]3CC[C@]2(CO)C3(C)C)c(OC)c1 [HU910]
// result 4.2
